Measured pEC50 accompanies every entry in the list below.
Experiment: Effective concentration for 50% protection of HIV-induced cytopathogenicity in MT-4 cells on the MTT assay
Notebook: values listed as pEC50 are -log10 of the concentration (mol/L).

Check out these entries, answers already filled in.
[[record]]
molecule = "NCCCC[C@@H]1NC(=O)[C@H](CCCNC(N)=O)NC(=O)[C@H](Cc2ccc(O)cc2)NC(=O)[C@@H](NC(=O)[C@H](Cc2ccc3ccccc3c2)NC(=O)[C@H](CCCN=C(N)N)NC(=O)[C@@H](N)CCCNC(N)=O)CSSC[C@@H](C(=O)N[C@@H](CCCN=C(N)N)C(N)=O)NC(=O)[C@H](CCCNC(N)=O)NC(=O)[C@H](CCCN=C(N)N)NC(=O)[C@H](Cc2ccc(O)cc2)NC(=O)[C@@H]2CCCN2C(=O)[C@@H](CCCCN)NC1=O [Derivative of T140 peptide]"
observed_value = 8.18

[[record]]
molecule = "NCCCC[C@@H]1NC(=O)[C@H](CCCN=C(N)N)NC(=O)[C@H](Cc2ccc(O)cc2)NC(=O)[C@@H](NC(=O)[C@@H](NC(=O)[C@H](CCCN=C(N)N)NC(=O)[C@@H](N)CCCNC(N)=O)c2ccc3ccccc3c2)CSSC[C@@H](C(=O)N[C@@H](CCCN=C(N)N)C(=O)O)NC(=O)[C@H](CCCNC(N)=O)NC(=O)[C@H](CCCNC(N)=O)NC(=O)[C@H](Cc2ccc(O)cc2)NC(=O)[C@@H]2CCCN2C(=O)[C@@H](CCCCN)NC1=O [Derivative of T140 peptide]"
observed_value = 7.17

[[record]]
molecule = "NCCCC[C@@H]1NC(=O)[C@H](CCCN=C(N)N)NC(=O)[C@H](Cc2ccc(O)cc2)NC(=O)[C@@H](NC(=O)[C@@H](NC(=O)[C@H](CCCN=C(N)N)NC(=O)[C@@H](N)CCCN=C(N)N)c2ccc3ccccc3c2)CSSC[C@@H](C(=O)N[C@@H](CCCN=C(N)N)C(=O)O)NC(=O)[C@H](CCCNC(N)=O)NC(=O)[C@H](CCCNC(N)=O)NC(=O)[C@H](Cc2ccc(O)cc2)NC(=O)[C@@H]2CCCN2C(=O)[C@@H](CCCNC(N)=O)NC1=O [Derivative of T140 peptide]"
observed_value = 8.11

[[record]]
molecule = "NCCCC[C@@H]1NC(=O)[C@H](CCCN=C(N)N)NC(=O)[C@H](Cc2ccc(O)cc2)NC(=O)[C@@H](NC(=O)[C@@H](NC(=O)[C@H](CCCN=C(N)N)NC(=O)[C@@H](N)CCCNC(N)=O)c2ccc3ccccc3c2)CSSC[C@@H](C(=O)N[C@@H](CCCN=C(N)N)C(N)=O)NC(=O)[C@H](CCCNC(N)=O)NC(=O)[C@H](CCCNC(N)=O)NC(=O)[C@H](Cc2ccc(O)cc2)NC(=O)[C@@H]2CCCN2C(=O)[C@@H](CCCCN)NC1=O [Derivative of T140 peptide]"
observed_value = 7.40


We now examine a further molecule.
Using the record for NCCCC[C@@H]1NC(=O)[C@H](CCCNC(N)=O)NC(=O)[C@H](Cc2ccc(O)cc2)NC(=O)[C@@H](NC(=O)[C@@H](NC(=O)[C@H](CCCN=C(N)N)NC(=O)[C@@H](N)CCCN=C(N)N)c2ccc3ccccc3c2)CSSC[C@@H](C(=O)N[C@@H](CCCN=C(N)N)C(N)=O)NC(=O)[C@H](CCCNC(N)=O)NC(=O)[C@H](CCCNC(N)=O)NC(=O)[C@H](Cc2ccc(O)cc2)NC(=O)[C@@H]2CCCN2C(=O)[C@@H](CCCCN)NC1=O [Derivative of T140 peptide] , report its pEC50.
8.17

Origin of values: BindingDB's records for doi:10.1016/s0960-894x(01)00323-7
